Cited source for all entries: ChEMBL document CHEMBL4823246

assay.system: Nuclear receptor subfamily 4 group A member 2 (Homo sapiens)
Sequence (P43354 whole entry, the tested form may be a part): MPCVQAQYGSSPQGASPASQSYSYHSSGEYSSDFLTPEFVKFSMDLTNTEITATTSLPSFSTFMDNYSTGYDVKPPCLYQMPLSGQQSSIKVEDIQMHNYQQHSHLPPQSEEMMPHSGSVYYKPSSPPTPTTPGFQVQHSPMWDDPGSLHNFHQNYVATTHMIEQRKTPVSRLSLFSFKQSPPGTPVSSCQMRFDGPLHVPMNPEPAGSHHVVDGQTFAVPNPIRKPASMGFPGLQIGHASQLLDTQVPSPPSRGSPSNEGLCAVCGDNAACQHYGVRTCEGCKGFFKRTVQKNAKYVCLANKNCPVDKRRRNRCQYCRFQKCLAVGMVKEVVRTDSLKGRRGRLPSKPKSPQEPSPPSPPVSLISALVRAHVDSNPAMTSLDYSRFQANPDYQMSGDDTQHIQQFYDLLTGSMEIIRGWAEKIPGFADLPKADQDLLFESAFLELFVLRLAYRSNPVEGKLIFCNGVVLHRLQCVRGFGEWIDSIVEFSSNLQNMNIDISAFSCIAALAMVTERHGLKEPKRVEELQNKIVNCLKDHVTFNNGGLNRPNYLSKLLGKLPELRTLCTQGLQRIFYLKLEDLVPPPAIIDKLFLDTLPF
assay.notes: Agonist activity at Gal4-fused human Nurr1 LBD expressed in HEK293T cells co-expressing firefly luciferase assessed as luciferase activity incubated for 12 to 14 hrs by hybrid reporter gene assay
readout.type: EC50 (µM)
Numbers only, in µM.

{"compound": "CCCCNc1cc(C)nc2c(Cl)cccc12", "EC50 / µM": 12}
{"compound": "Nc1ccnc2c(Cl)cccc12", "EC50 / µM": 49}
{"compound": "CCN(CC)Cc1cccc(Nc2ccnc3cc(Cl)ccc23)c1", "EC50 / µM": 116}
{"compound": "Cc1cc(NC(C)C(C)C)c2cccc(Cl)c2n1 (centres undefined)", "EC50 / µM": 17}
{"compound": "Cc1cc(NC(C)C)c2cccc(Cl)c2n1", "EC50 / µM": 31}

Consider the following items and state reported EC50 for each.
1. Cc1cc(N)c2ccc(Cl)cc2n1
2. Nc1cc(Cl)cc2ncccc12
3. Nc1ccnc2ccc(Cl)cc12

1. 33
2. 19
3. 117

Please report the measured EC50 for Nc1ccnc2cc(Cl)ccc12
259
